target_under_test: HLA-B*27:05
protocol_notes: IEDB peptide-MHC binding, purified MHC/direct/fluorescence; filed as Kd, often an IC50 or EC50 that approximates it; bounds were set here for any values at or beyond the usual limits of such assays
test_settings: source organism: Yellow fever virus
pKd: −log10 of the molar value.
endpoint: pKd

Reported pKd for PHAATIRVL was ≤ 4.70

* * *

target_under_test: HLA-C*14:02
protocol_notes: IEDB peptide-MHC binding, purified MHC/competitive/fluorescence; filed as Kd, often an IC50 or EC50 that approximates it; bounds were set here for any values at or beyond the usual limits of such assays
test_settings: source organism: Entamoeba histolytica HM-1:IMSS
endpoint: Kd
I'd appreciate it if you included the unit after the number.

Reported Kd for YIISTHYQF was 158 nM

* * *

target_under_test: HLA-B*15:01
protocol_notes: IEDB peptide-MHC binding, purified MHC/competitive/fluorescence; filed as Kd, often an IC50 or EC50 that approximates it; bounds were set here for any values at or beyond the usual limits of such assays
test_settings: source organism: Vibrio vulnificus YJ016
endpoint: Kd

Reported Kd for LTDEQKNAV was ≥ 20 µM

* * *

target_under_test: HLA-A*68:01
protocol_notes: IEDB peptide-MHC binding, purified MHC/competitive/radioactivity; filed as Kd, often an IC50 or EC50 that approximates it; bounds were set here for any values at or beyond the usual limits of such assays
test_settings: source organism: Lassa virus Josiah
endpoint: Kd (µM)
Numeric only. Scale: µM

Reported Kd for TCQGSDDIRK was 5.71

* * *

target_under_test: HLA-A*01:01
protocol_notes: IEDB peptide-MHC binding, purified MHC/competitive/fluorescence; filed as Kd, often an IC50 or EC50 that approximates it; bounds were set here for any values at or beyond the usual limits of such assays
test_settings: source organism: Salmonella enterica subsp. enterica serovar Typhi
endpoint: Kd (nM)
Numeric only. Scale: nM

Lab entry: HLA-A*01:01 assay, sequence ATTFARFLY , Kd = 19.3

* * *

target_under_test: HLA-B*27:03
protocol_notes: IEDB peptide-MHC binding, purified MHC/competitive/fluorescence; filed as Kd, often an IC50 or EC50 that approximates it; bounds were set here for any values at or beyond the usual limits of such assays
test_settings: source organism: Listeria monocytogenes EGD-e
pKd: −log10 of the molar value.
endpoint: pKd

Lab entry: HLA-B*27:03 assay, sequence LAIVTTPLV , pKd = ≤ 4.70

* * *

target_under_test: HLA-A*31:01
protocol_notes: IEDB peptide-MHC binding, purified MHC/direct/fluorescence; filed as Kd, often an IC50 or EC50 that approximates it; bounds were set here for any values at or beyond the usual limits of such assays
test_settings: source organism: Cryptosporidium parvum
pKd: −log10 of the molar value.
endpoint: pKd

Reported pKd for RKWGLDFCY was ≤ 4.70

* * *

target_under_test: HLA-B*35:01
protocol_notes: IEDB peptide-MHC binding, purified MHC/competitive/radioactivity; filed as Kd, often an IC50 or EC50 that approximates it; bounds were set here for any values at or beyond the usual limits of such assays
test_settings: source organism: Mammarenavirus brazilense
endpoint: pKd
Expect pKd as a plain number equal to -log10 of the molar concentration.

Reported pKd for TPTQLAETI was 6.18

* * *

target_under_test: HLA-B*37:01
protocol_notes: IEDB peptide-MHC binding, purified MHC/competitive/fluorescence; bounds were set here for any values at or beyond the usual limits of such assays
test_settings: source organism: Ateles geoffroyi
pIC50: −log10 of the molar value.
endpoint: pIC50

Reported pIC50 for LPADPASVL was ≤ 4.70
